# assay.remarks: small-molecule microarray binders of probe aNog, primary screen, biochemical, biotinylated probe, 635/667 nm fluorescence (AID 1115);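 also: probe is biotinylated aNog protein used at 0.15 µg/mL for 1 h at 4 C; z-score combines 667 nm fluorescence of each spot with its signal to noise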
# test.context: higher = more signal
measured.metric: composite z-score
I'd appreciate a reply containing only the number, no unit.

# compound C=CCNC(=O)[C@@H]1[C@H]2C(=O)O[C@H](c3ccccc3)[C@H](c3ccccc3)N2[C@H](c2ccc(OCCO)cc2)[C@@]12C(=O)Nc1ccc(C#CCC(C(=O)OC)C(=O)OC)cc12 ; its composite z-score = 0.914

# compound COCC(=C=CC[C@@H](O)c1cccc(OCCO)c1)C[C@@H](O)c1ccccn1 ; its composite z-score = -0.388

# compound O=C(N1CCCCC1)[C@]1(Cc2ccccc2)N=C(c2ccc(OCCCO)cc2)O[C@@H]1c1ccccc1 ; its composite z-score = 0.85

# compound CCOC(=O)C[C@H]1[C@H](OC(=O)c2ccc(C(=O)c3ccccc3)cc2)[C@@H](NC(=O)c2ccc3ccccc3n2)c2cc(OCCCO)ccc2N1C(=O)c1ccccc1 ; its composite z-score = 0.217

* * *

# assay.remarks: basal MM1S mitochondrial membrane potential changes, profiling panel, cell-based, JC-1 fluorescence, 24 h, 100 nL compound (AID 1170); also: test concentration not given here
# test.context: higher = more signal
measured.metric: z-score
I'd appreciate a reply containing only the number, no unit.

# compound C=C[C@@H](COC(=O)OC(C)(C)C)N(Cc1ccc(OC)cc1)S(=O)(=O)c1ccc(Br)cc1 ; its z-score = 0.101

# compound O=C1C[C@]2(c3ccc([N+](=O)[O-])cc3)C(=O)N(CC(F)(F)F)c3cc(CO)ccc3[C@H]2N1C1CCCCC1 ; its z-score = 1.9

# compound O=C(c1ccccc1)N1C(=O)[C@]2(COC(c3ccc(OCCCO)cc3)=N2)Cc2ccccc21 ; its z-score = -1.49

# compound C=C(COC)C(=O)CC[C@@H](OC(C)=O)c1ccc(CO)o1 ; its z-score = -0.066

# compound COC(=O)C(CC#Cc1ccc2c(c1)[C@]1(C(=O)N2)[C@H](c2ccc(OCCO)cc2)N2[C@H](c3ccccc3)[C@H](c3ccccc3)OC(=O)[C@H]2[C@@H]1C(=O)Nc1nc2ccccc2s1)C(=O)OC ; its z-score = -1.29

# compound C=CCOC(=O)[C@H]1[C@@H]2C(=O)O[C@@H](c3ccccc3)[C@@H](c3ccccc3)N2[C@@H](c2ccc(OCCOC(=O)[C@@H]3C[C@@H]4C(=O)N[C@@H](CC(C)C)C(=O)N4[C@@H]3c3ccc(O)cc3)cc2)[C@]12C(=O)Nc1ccccc12 ; its z-score = -0.836

* * *

# Tested on: Noggin (protein binding on small-molecule microarray)
# assay.remarks: Noggin binders on small-molecule microarray, primary screen, biochemical, 635/667 nm fluorescence (AID 1095);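 also: score merges 667 nm feature fluorescence with signal to noise over triplicate slides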
# test.context: 635 nm fluorescence, higher = more signal
Below, each entry is listed with its recorded composite z-score.
I'd appreciate a reply containing only the number, no unit.

Here are 8 molecules together with their reported answers.
Query O=C1C[C@@](C(=O)NC2CC2)(c2ccc([N+](=O)[O-])cc2)[C@@H](c2ccc(CO)cc2I)N1C1CCCCC1 on Noggin (protein binding on small-molecule microarray); composite z-score returned: 1.25

Query COC(=O)[C@@]1(Cc2ccc(OC)cc2)[C@H]2c3cc(C(=O)N(C)C)n(Cc4ccc(S(C)(=O)=O)cc4)c3C[C@H]2CN1C(=O)c1ccccc1 on Noggin (protein binding on small-molecule microarray); composite z-score returned: 0.715

Query C=C(/C(=C/C[C@H](OC(C)=O)c1ccc(CO)o1)c1cc(C(=O)OC)ccc1OC)C(C)C on Noggin (protein binding on small-molecule microarray); composite z-score returned: 0.58

Query [N-]=[N+]=NCc1ccccc1C[C@]1(C(N)=O)COC(c2ccc(OCCCO)cc2)=N1 on Noggin (protein binding on small-molecule microarray); composite z-score returned: -0.572

Query C=C(COC)C(=O)CC[C@@H](OC(C)=O)c1ccc(CO)o1 on Noggin (protein binding on small-molecule microarray); composite z-score returned: 1.11

Query CC(C)NC(=O)[C@@]1(c2ccc([N+](=O)[O-])cc2)CC(=O)N(C2CCCCC2)[C@@H]1c1ccc(CO)cc1I on Noggin (protein binding on small-molecule microarray); composite z-score returned: -0.941

Query COC(=O)[C@@]1(Cc2ccc(OC)cc2)[C@H]2c3cc(C(=O)N4CCCC4)n(Cc4ccc(O)c(OC)c4)c3C[C@H]2CN1C(=O)c1ccccc1 on Noggin (protein binding on small-molecule microarray); composite z-score returned: -0.194

Query C[N+](C)(C)CCCC[C@@H]1NC(=O)[C@H]2C[C@@H](C(=O)NCCCCCCNC(=O)CS)[C@@H](c3cccc(OCCO)c3)N2C1=O on Noggin (protein binding on small-molecule microarray); composite z-score returned: -0.33

Continuing:
Query COCCOC(=O)N1C(=O)[C@@]2(c3cc(C#CCC(C(=O)OC)C(=O)OC)ccc31)[C@H](C(=O)Nc1nc3ccccc3s1)[C@H]1C(=O)O[C@H](c3ccccc3)[C@H](c3ccccc3)N1[C@@H]2c1ccccc1OCCO on Noggin (protein binding on small-molecule microarray); composite z-score returned: 0.133

Query CCCC[C@@H]1C[C@H]1[C@@H](NC(=O)c1cccs1)c1ccc(-c2ccccc2)cc1 on Noggin (protein binding on small-molecule microarray); composite z-score returned: 0.692

Query O=C(NCCN1CCOCC1)[C@@H]1c2ccccc2C(=O)N(C2CCCCC2)[C@H]1c1ccc(CO)cc1 on Noggin (protein binding on small-molecule microarray); composite z-score returned: -0.562

Query Cc1ccccc1C(O)C1C=CC2C(=O)N(c3ccccc3)C(=O)C2N1Nc1ccc(C(C)C)cc1 (stereo unspecified) on Noggin (protein binding on small-molecule microarray); composite z-score returned: -0.0693

Query C=C(COC)/C(=C/C[C@H](OC(C)=O)c1ccc(CO)o1)c1cc(C(=O)OC)ccc1OC on Noggin (protein binding on small-molecule microarray); composite z-score returned: 0.493

Query COc1ccccc1CN1C(=O)c2ccccc2[C@@]2(Cc3ccccc3N(CC(C)C)C2=O)[C@@H]1c1ccc(CO)cc1 on Noggin (protein binding on small-molecule microarray); composite z-score returned: -0.19

Query CC1(C)[C@@H]2CC(C(O)C3C=CC4C(=O)N(Cc5ccccc5)C(=O)C4N3n3cnnc3)=C[C@H]1C2 (stereo partly specified) on Noggin (protein binding on small-molecule microarray); composite z-score returned: 0.458

Query C=CC[C@]1(C(=O)NCc2ccccc2)N=C(c2ccc(OCCCO)cc2)O[C@H]1c1ccccc1N=[N+]=[N-] on Noggin (protein binding on small-molecule microarray); composite z-score returned: 0.0073

* * *

Below, each entry is listed with its recorded z-score.
# assay.remarks: cell viability in Huh7 cells, primary screen, cytotoxicity control for HCV replication inhibitor project, CellTiter-Glo luminescence, basal, 48 h (AID 1143);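 also: Huh7 hepatoma cells carrying a hepatitis C replication reporter with no stimulus; test concentration not given here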
# test.context: Huh7 HCV replicon, higher = more signal, called active from +8 up or from −8 down
I'd appreciate a reply containing only the number, no unit.

Here are 4 compounds together with their reported answers.
# compound CCCC[C@@H]1C[C@H]1[C@@H](NC(=O)c1ccco1)c1ccc(-c2ccccc2)cc1 ; its z-score = -2.51

# compound CC(C)C[C@@H]1NC(=O)[C@@H]2C[C@H](C(=O)NCc3ccc(F)cc3)[C@H](c3cccc(OCCO)c3)N2C1=O ; its z-score = -0.119

# compound Cc1ccc(S[C@]2(C(=O)NCCCN(C)C)CC(=O)N(Cc3cc(C(F)(F)F)cc(C(F)(F)F)c3)[C@@H]2c2ccc(CO)cc2I)cc1 ; its z-score = -1.21

# compound CC(C)C(=C=CC[C@@H](O)c1ccc(OCCO)cc1)C[C@@H](O)c1ccccn1 ; its z-score = -0.661

Continuing:
# compound Cc1ccc(S[C@]2(C(=O)NCCCN(C)C)CC(=O)N(Cc3ccccc3C(F)(F)F)[C@@H]2c2ccc(CO)cc2)cc1 ; its z-score = 0.312

# compound CCc1cccc(NC(=O)O[C@H]2[C@H](OC(=O)Nc3ccccc3-c3ccccc3)[C@@H](OC(=O)Nc3ccccc3-c3ccccc3)[C@@H](OC)O[C@@H]2CO)c1 ; its z-score = -6.04

# compound C=C[C@@H](COC(=O)OC(C)(C)C)N(Cc1ccc(OC)cc1)S(=O)(=O)c1ccc(Br)cc1 ; its z-score = -1.75

* * *

# subject.of.test: Dihydroorotate dehydrogenase (quinone), mitochondrial (Plasmodium falciparum (isolate 3D7))
# assay.remarks: PfDHODH enzyme inhibitors, primary screen, biochemical, C-terminal His tag, absorbance 600 nm (AID 1175);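 also: recombinant parasite enzyme with a five histidine tag at its C terminus; test concentration not given here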
# test.context: DCIP absorbance 600 nm, called active from +8 up or from −8 down
Calls of active or inactive are those of the source.
Respond with a class label; see active, inactive

Record excerpt, results attached:
Query: Assay result, entry COC(=O)C(CC#Cc1ccc2c(c1)[C@]1(C(=O)N2)[C@H](c2ccc(OCCO)cc2)N2[C@H](c3ccccc3)[C@H](c3ccccc3)OC(=O)[C@H]2[C@@H]1C(=O)N1CCc2cc(OC)c(OC)cc2C1)C(=O)OC — outcome?
Reply: inactive

Query: Assay result, entry COC(=O)[C@@]1(Cc2ccc(F)cc2)[C@H]2c3cc(C(=O)N(C)C)n(Cc4ccccc4)c3C[C@H]2CN1C(=O)c1ccccc1 — outcome?
Reply: inactive

Query: Assay result, entry CC(CO)N1C(=O)[C@@H]2C3C(=O)OCCC/C=C\[C@H]3OC23C=CCN(C(C)(C)C)C(=O)[C@@H]13 (some centres undefined) — outcome?
Reply: inactive

Query: Assay result, entry O=C1C2C=CC(C(O)CCc3ccccc3)N(Nc3ccccc3F)C2C(=O)N1c1ccccc1 (centres undefined) — outcome?
Reply: inactive

Continuing:
Query: Assay result, entry COC(=O)[C@@]1(Cc2ccc(OC)cc2)[C@@H]2C(=CC(=O)[C@H]2CC(=O)C(=O)N2CCCC2)CN1C(=O)c1ccccc1 — outcome?
Reply: inactive

Query: Assay result, entry C[N+](C)(C)CCCCNC(=O)[C@H]1C[C@H]2C(=O)N3CCC[C@H]3C(=O)N2[C@H]1c1cccc(OCCO)c1 — outcome?
Reply: active

Query: Assay result, entry COCCOC(=O)N1C(=O)[C@@]2(c3cc(C#CC4(O)CCCCCC4)ccc31)[C@H](c1ccccc1OCCO)N1[C@H](c3ccccc3)[C@H](c3ccccc3)OC(=O)[C@H]1[C@@H]2C(=O)N1CCN(c2ncccn2)CC1 — outcome?
Reply: inactive

Query: Assay result, entry NC(=O)[C@@H]1[C@H]2C(=O)O[C@H](c3ccccc3)[C@H](c3ccccc3)N2[C@H](c2ccc(O)cc2)[C@@]12C(=O)Nc1ccccc12 — outcome?
Reply: inactive

Query: Assay result, entry CC(C)N1C(=O)[C@@]2(Cc3ccccc31)c1ccccc1C(=O)N(Cc1ccccc1Cl)[C@H]2c1ccc(CO)cc1 — outcome?
Reply: inactive

Query: Assay result, entry COc1ccc(CCNC(=O)[C@@H]2c3ccccc3C(=O)N(Cc3ccccc3Cl)[C@H]2c2ccc(CO)cc2)cc1 — outcome?
Reply: inactive

Query: Assay result, entry CCCCCCc1nc(-c2cc(C)c(OC)c(C)c2)cc2c1[Si](C(C)C)(C(C)C)OC2 — outcome?
Reply: inactive

Query: Assay result, entry O=C1C[C@@](C(=O)NCC(F)(F)F)(c2ccc([N+](=O)[O-])cc2)[C@@H](c2ccc(CO)cc2I)N1C1CCCCC1 — outcome?
Reply: inactive

Query: Assay result, entry CC(C)[Si]1(C(C)C)O[C@@H](c2ccccc2)c2cc(-c3ccc(-c4ccc(Cl)c(Cl)c4)o3)nc(-c3ccccc3)c21 — outcome?
Reply: inactive

Query: Assay result, entry COCCOC(=O)N1C(=O)[C@@]2(c3cc(C#CCCO)ccc31)[C@H](C(N)=O)[C@H]1C(=O)O[C@H](c3ccccc3)[C@H](c3ccccc3)N1[C@@H]2c1ccc(O)cc1 — outcome?
Reply: inactive

Entry source: PubChem BioAssay
